Listed variants paired with reported protein stability index
B1: SPACA3 (parent)
chain: FTSGFNAAALDYEADGSTNNGIFQ

# Variants of: B1
# measurement.protocol: protein stability index of a GFP-peptide fusion (GPS, HEK-293T) (PSI 1-6); higher = more stable;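 note: lentivirally expressed fusions sorted by FACS into six bins by GFP to DsRed ratio, PSI derived from sequencing read proportions per bin multiplied by bin number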
# condition.description: c terminus: a fixed tail appended
API note: the answer field is a bare number with no unit suffix.

Solved entries (count: 5):
Q: Reported protein stability index, variant Q24P : ____
Ans: 1.99

Q: Reported protein stability index, variant E13Q : ____
Ans: 1.56

Q: Reported protein stability index, variant F23N : ____
Ans: 2.4

Q: Reported protein stability index, variant N6Q : ____
Ans: 1.94

Q: Reported protein stability index, variant N19G : ____
Ans: 2.03

Others:
Q: Reported protein stability index, variant F5Y : ____
Ans: 2.18

Q: Reported protein stability index, variant N20K : ____
Ans: 1.98

Q: Reported protein stability index, variant T18Q : ____
Ans: 1.82

Q: Reported protein stability index, variant F23T : ____
Ans: 2.92

Q: Reported protein stability index, variant A14Y : ____
Ans: 2.09

Q: Reported protein stability index, variant N20I : ____
Ans: 1.9
